- tgt: hemagglutinin (HA) of influenza virus H3N2 A/Brisbane/10/07 (influenza A virus)
- assay.text: cell-based or functional assay
Hi there, I'd appreciate the recorded average neutralization titer for every entry that follows.
Report the value in nM with no unit label.

[Q] Entry MD2306 (bispecific antibody) EVQLVESGGGLVQPGGSLRLSCAVSISIFDIYAMDWYRQAPGKQRDLVATSFRDGSTNYADSVKGRFTISRDNAKNTLYLQMNSLKPEDTAVYLCHVSLYRDPLGVAGGMGVYWGKGALVTVSSGGGGSGGGGSEVQLVESGGGLVQPGGSLRLSCAVSISIFDIYAMDWYRQAPGKQRDLVATSFRDGSTNYADSVKGRFTISRDNAKNTLYLQMNSLKPEDTAVYLCHVSLYRDPLGVAGGMGVYWGKGALVTVSSGGGGSGGGGSEVQLVESGGGLVQPGGSLRLSCAATGFTLENKAIGWFRQTPGSEREGVLCISKSGSWTYYTDSMRGRFTISRDNAENTVYLQMDSLKPEDTAVYYCATTTAGGGLCWDGTTFSRLASSWGQGTQVTVSS has what average neutralization titer?
[A] 10.7

[Q] // query average neutralization titer value for entry MD2308 (bispecific antibody) EVQLVESGGGLVQAGDSLRISCAASGRTLSIYSMGWFRQAPGKEREFVATIGWNSGRTFYPDSLKGRFTISRDNARNTLYLQMNNLRPEDTAVYYCAAAKGPLRLSSQADYWGQGTQVTVSSGGGGSGGGGSEVQLVESGGGLVQPGGSLRLSCAATGFTLENKAIGWFRQTPGSEREGVLCISKSGSWTYYTDSMRGRFTISRDNAENTVYLQMDSLKPEDTAVYYCATTTAGGGLCWDGTTFSRLASSWGQGTQVTVSSGGGGSGGGGSEVQLVESGGGLVQAGDSLRLSCAASGPTFGMSAMGWFRQAPGKEREFVAAISGLGNPNYSDDVKGRFTISRENGRNTVYLQMNSLKPEDTAVYYCAQRKVYHVQGGDRPQAYDYWGQGTQVTVSS
[A] 15.3

[Q] Could you share which average neutralization titer value was measured for MD2309 (bispecific antibody) EVQLVESGGGLVQAGDSLRISCAASGRTLSIYSMGWFRQAPGKEREFVATIGWNSGRTFYPDSLKGRFTISRDNARNTLYLQMNNLRPEDTAVYYCAAAKGPLRLSSQADYWGQGTQVTVSSGGGGSGGGGSEVQLVESGGGLVQAGDSLRLSCAASGPTFGMSAMGWFRQAPGKEREFVAAISGLGNPNYSDDVKGRFTISRENGRNTVYLQMNSLKPEDTAVYYCAQRKVYHVQGGDRPQAYDYWGQGTQVTVSSGGGGSGGGGSEVQLVESGGGLVQPGGSLRLSCAATGFTLENKAIGWFRQTPGSEREGVLCISKSGSWTYYTDSMRGRFTISRDNAENTVYLQMDSLKPEDTAVYYCATTTAGGGLCWDGTTFSRLASSWGQGTQVTVSS ?
[A] 12.8
